- target-or-system: T1, his avi huNKG2D ECD (human, biotinylated at the avi-tag (in the ELISA))
- T1 construct: Human NKG2D ECD with N-terminal H6-avi tags, forms non-covalent dimers; also called recombinant human NKG2D
- T1 chain: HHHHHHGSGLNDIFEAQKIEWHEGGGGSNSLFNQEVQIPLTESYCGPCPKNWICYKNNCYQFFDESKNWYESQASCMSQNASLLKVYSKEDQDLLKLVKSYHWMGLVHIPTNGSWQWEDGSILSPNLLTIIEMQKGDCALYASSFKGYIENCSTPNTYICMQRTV
- test-description: ELISA; biotinylated antigen on streptavidin plate
Consider the following binders; for each one, report its pEC50.
The value called pEC50 is obtained by taking minus log10 of the concentration in mol/L.

Lab note: measured pEC50 of anti-NKG2D antibody clone 018 (antibody, V domains shown, From transgenic rabbits) VH: QQLEQSGGGLVTPGGSLKVCCKASGFDFTTYWMTWVRQAPEKGLEWIGCIHGGDSGATYYANWVNGRFTLSRDIDQSTGCLQLNSLTAADTAMYYCARPGYPSWSKTFDLWGQGTMVTVSS VL: DIQMTQSPSSLSASVGDRVTITCQASQDISNALNWYQQKPGKAPKLLIYAASTLQSGVPSRFSGSGSGTDFTLTISSLQPEDFATYYCQHSNSFPLTFGGGTKVEIK was 8.96

Lab note: measured pEC50 of anti-NKG2D antibody clone 320 (antibody, V domains shown, From transgenic rabbits; also called 320 IgG) VH: EVQLLESGGGLVQPGGSLRLSCATSGFTFSDYAMSWVRQAPGKGLEWVSYNSFSVGSTDYADSVKGRFTISRDNSKNTLYLQMNSLRAEDTAVYYCSKHSGNYYTGPFHYWGQGTLVTVSS VL: DIQLTQSPSFLSASVGDRVTITCRASQGISSYLAWYQQKPGKAPKLLIYAASSLESGVPSRFSGSGSGTDFTLTISSLQPEDFATYYCQQSYSTPITFGQGTRLEIK was 8.85

Lab note: measured pEC50 of anti-NKG2D antibody clone 013 (antibody, V domains shown, From transgenic rabbits) VH: EQSGGGAGGGLVKPGGSLELCCKASGFDFSIYWMSWVRQSPGKGLEWIGRIYGGSSDYTAYASWVNGRFTLSRDIDQSTGCLQLNSLTAADTAMYYCVRLNPSFSRSFDYWGQGTLVTVSS VL: DIQMTQSPSSVSASVGDRVTITCRASQGIFSWLVWYQQKPGKAPELLMYGASTLQSGVPSRFSGSGSGTDFTLTISSLQPEDFATYYCQQGYSTPYTFGQGTKVEIK was 8.70

Lab note: measured pEC50 of anti-NKG2D antibody clone 001 (antibody, V domains shown, From transgenic rabbits) VH: QQLEQSGGGLVTPGGSLKLCCIGSGFDFNTYWMTWVRQAPGKGLEWIGCIHGGSSGSTYYASWVNGRFTLSRDIDQSTGCLQVNSLTAADTAMYYCARPGYRSWSKTFDLWGQGTMVTVSS VL: DIQMTQSPSSLSASVGDRVTITCRASQDISESLNWYQQKPGKAPKLLIYAASSLQSGVPSRFSGSGSGTDYTLTISSLQPEDFATYYCQQANSFPLTFGGGTKVEIK was 9.10
